Molecular target: T1, biotinylated recombinant mouse IL-12Rβ2 (mouse, UniProt P97378 24-637, random biotinylated)
T1 construct: Recombinant protein produced in-house; also called mIL-12RB2; mouse IL-12RB2
T1 sequence: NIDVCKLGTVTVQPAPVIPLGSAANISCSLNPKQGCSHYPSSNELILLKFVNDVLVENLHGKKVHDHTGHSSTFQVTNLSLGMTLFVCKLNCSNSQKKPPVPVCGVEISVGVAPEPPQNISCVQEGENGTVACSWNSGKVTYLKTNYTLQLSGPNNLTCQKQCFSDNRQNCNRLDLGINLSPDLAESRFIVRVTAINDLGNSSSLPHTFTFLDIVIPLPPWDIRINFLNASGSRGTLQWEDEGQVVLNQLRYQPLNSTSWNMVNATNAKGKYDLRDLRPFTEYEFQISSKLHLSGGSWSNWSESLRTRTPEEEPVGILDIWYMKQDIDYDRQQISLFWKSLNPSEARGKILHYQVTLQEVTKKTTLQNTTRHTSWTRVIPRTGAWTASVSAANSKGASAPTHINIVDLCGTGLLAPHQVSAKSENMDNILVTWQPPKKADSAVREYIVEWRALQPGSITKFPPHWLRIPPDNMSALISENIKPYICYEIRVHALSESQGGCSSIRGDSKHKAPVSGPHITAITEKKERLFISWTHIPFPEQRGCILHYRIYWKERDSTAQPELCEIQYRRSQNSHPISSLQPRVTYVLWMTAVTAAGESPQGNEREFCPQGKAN
Test: ELISA, P.E., biotinylated antigen
EXPERIMENTAL ENDPOINT: ELISA mIL-12RB2/control
The reply should be a number, written without any unit.

anti-IL-12Rβ2 VHH clone 3CRH59 (clone ID 20385) (VHH, not shown: small tags and cut ends, periplasmic extract) VHH: QVQLQESGGGLVQPGGSLRLSCTASGFAFSSYWMYWVRQTPGKGFEWVSVVNPGGEITYYGDSMEDRFTISRDNAKNTLYLQMNSLKPEDTGLYYCARDRTTIDYTRTYYRGGQGTQVTVSS :: 1.89
anti-IL-12Rβ2 VHH clone 3CRHS9 (clone ID 20415) (VHH, not shown: small tags and cut ends, periplasmic extract) VHH: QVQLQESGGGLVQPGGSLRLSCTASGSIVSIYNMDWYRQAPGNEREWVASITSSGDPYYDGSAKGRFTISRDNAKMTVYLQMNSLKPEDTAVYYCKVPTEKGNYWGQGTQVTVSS :: 1.09
anti-IL-12Rβ2 VHH clone 3CRHS55 (clone ID 20423) (VHH, not shown: small tags and cut ends, periplasmic extract) VHH: QVQLQESGGGLVQAGGSLNLSCTASGSIISIYNMDWYRQAPGNQREWVASITSNGDSYYDGSAKGRFTISRDNAKMTVYLQMNSLKPEDTAVYYCKVPTENGNYWGQGTQVTVSS :: 1.11

Report ELISA mIL-12RB2/control for anti-IL-12Rβ2 VHH clone 3CRHS166 (clone ID 20439) (VHH, not shown: small tags and cut ends, periplasmic extract) VHH: QVQLQESGGGLVQSGGSLRLSCVSSQTLVGIEAMGWYRQAPGKQRELVALITLNGGTFYADSVKGRFTISRDVAEHMLYLEMNSLNPEDTAVYFCVAGVESDNEEPTYWGQGTQVTVSS please.
1.06
